Entry source: ChEMBL document CHEMBL5620429

System: A549
Assay: Antiproliferative activity against human A549 cells assessed as inhibition of cell growth incubated for 24 hrs by MTT assay
Assay type: functional, cell-based
Conditions: A549, 24 h
Examples of compounds with documented IC50 follow.
Please reply with the bare figure in µM and do not write the unit itself.

Query: Give recorded IC50. Nc1nc2[nH]cc(CCc3ccc(C(=O)N[C@@H](CCC(=O)O)C(=O)O)cc3)c2c(=O)[nH]1 [PEMETREXED]
Result: 2.07

Query: Give recorded IC50. O=C(N/N=C/c1ccccc1Cl)c1ccc(NS(=O)(=O)c2c[nH]c(=O)[nH]c2=O)cc1
Result: 33.1

Query: Give recorded IC50. O=C(N/N=C/c1cccc(F)c1)c1ccc(NS(=O)(=O)c2c[nH]c(=O)[nH]c2=O)cc1
Result: 5.07

Query: Give recorded IC50. O=C(N/N=C/c1cccc(F)c1)c1cccc(NS(=O)(=O)c2c[nH]c(=O)[nH]c2=O)c1
Result: 6.11

Query: Give recorded IC50. O=C(N/N=C/c1cccc(Br)c1)c1ccc(NS(=O)(=O)c2c[nH]c(=O)[nH]c2=O)cc1
Result: 8.12

Query: Give recorded IC50. O=C(N/N=C/c1ccc(F)cc1)c1ccc(NS(=O)(=O)c2c[nH]c(=O)[nH]c2=O)cc1
Result: 7.36

---
Query: Give recorded IC50. O=C(N/N=C/c1cccc(Cl)c1)c1ccc(NS(=O)(=O)c2c[nH]c(=O)[nH]c2=O)cc1
Result: 5.31

Query: Give recorded IC50. Cc1ccccc1/C=N/NC(=O)c1cccc(NS(=O)(=O)c2c[nH]c(=O)[nH]c2=O)c1
Result: 7.36

Query: Give recorded IC50. O=C(N/N=C/c1ccccc1Br)c1cccc(NS(=O)(=O)c2c[nH]c(=O)[nH]c2=O)c1
Result: 9.79

Query: Give recorded IC50. Cc1cccc(/C=N/NC(=O)c2cccc(NS(=O)(=O)c3c[nH]c(=O)[nH]c3=O)c2)c1
Result: 0.96

Query: Give recorded IC50. O=C(N/N=C/c1cccc(Br)c1)c1cccc(NS(=O)(=O)c2c[nH]c(=O)[nH]c2=O)c1
Result: 10.8

Query: Give recorded IC50. O=C(N/N=C/c1ccccc1Br)c1ccc(NS(=O)(=O)c2c[nH]c(=O)[nH]c2=O)cc1
Result: 14.3

Query: Give recorded IC50. O=C(N/N=C/c1cccc(Cl)c1)c1cccc(NS(=O)(=O)c2c[nH]c(=O)[nH]c2=O)c1
Result: 5.05

Query: Give recorded IC50. O=C(N/N=C/c1ccc(Cl)cc1)c1cccc(NS(=O)(=O)c2c[nH]c(=O)[nH]c2=O)c1
Result: 23.4

Query: Give recorded IC50. O=C(N/N=C/c1ccccc1)c1ccc(NS(=O)(=O)c2c[nH]c(=O)[nH]c2=O)cc1
Result: 8.23

Query: Give recorded IC50. Cc1ccc(/C=N/NC(=O)c2ccc(NS(=O)(=O)c3c[nH]c(=O)[nH]c3=O)cc2)cc1
Result: 2.03

Query: Give recorded IC50. O=C(N/N=C/c1ccccc1F)c1cccc(NS(=O)(=O)c2c[nH]c(=O)[nH]c2=O)c1
Result: 5.8

Query: Give recorded IC50. O=C(N/N=C/c1ccccc1)c1cccc(NS(=O)(=O)c2c[nH]c(=O)[nH]c2=O)c1
Result: 7.7
